Please respond with reported relative binding affinity for every item in the list.
Biological target: T1, human CD81 mutant V135A (human, UniProt P60033 1-236, limits assumed)
T1 construct: as m30; not shown: C-terminal V5 and 6xHis tags
T1 sequence: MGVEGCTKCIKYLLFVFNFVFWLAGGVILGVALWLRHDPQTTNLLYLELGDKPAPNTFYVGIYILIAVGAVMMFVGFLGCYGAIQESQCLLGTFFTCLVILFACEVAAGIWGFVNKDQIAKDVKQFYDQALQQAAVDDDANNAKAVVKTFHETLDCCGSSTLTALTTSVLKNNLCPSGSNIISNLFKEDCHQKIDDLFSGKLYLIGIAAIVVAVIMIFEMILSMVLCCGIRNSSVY
Experiment: ELISA

The cases that follow already have their relative binding affinity on record.
binder	readout-name	result
002-H02 (antibody, human IgG4 S228P, lambda, V domains shown, IgG4 S228P) VH: EVQLLESGGGLVQPGGSLRLSCAASGFTFSSNYMSWVRQAPGKGLEWVSYISSSSTYTDYADSVKGRFTISRDNSKNTLYLQMNSLRAEDTAVYYCARYSYGRDSFDYWGQGTLVTVSS VL: QSVLTQPSSASGTPGQRVTISCTGSTSNIGAGYGTHWYQQLPGTAPKLLIYGNSNRPSGVPDRFSGSKSGTSASLAISGLRSEDEADYYCQSYDTNLSVWVFGGGTKLTVLG	relative binding affinity	< 20%
002-D03 (antibody, human IgG4 S228P, lambda, V domains shown, IgG4 S228P) VH: EVQLLESGGGLVQPGGSLRLSCAASGFTFRSNYMSWVRQAPGKGLEWVSYISSSSTYTDYADSVKGRFTISRDNSKNTLYLQMNSLRAEDTAVYYCARYSYGRDNFDYWGQGTLVTVSS VL: QSVLTQPPSASGTPGQRVTISCTGSTSNIGAGYDTHWYQQLPGTAPKLLIYGNSNRPSGVPDRFSGSKSGTSASLAISGLRSEDEADYYCQSYDTNLSVWVFGGGTKLTVLG	relative binding affinity	< 20%

From here, focus on the item given below.
Task: Fill blank: measured relative binding affinity of the binder 002-A07 N113G (antibody, human IgG4 S228P, lambda, V domains shown, IgG4 S228P; glycosylation site mutant of 002-A07 VL) VH: EVQLLESGGGLVQPGGSLRLSCAASGFTFSSNYMSWVRQAPGKGLEWVSYISSSSTYTDYADSVKGRFTISRDNSKNTLYLQMNSLRAEDTAVYYCARYSYGRDNFDYWGQGTLVTVSS VL: QSVLTQPPSASGTPGQRVTISCTGSTSNIGAGYDTHWYQQLPGTAPKLLIYGNSNRPSGVPDRFSGSKSGTSASLAISGLRSEDEADYYCQSYDTGLSVWVFGGGTKLTVLG is ____.
Result: < 20%

Cited source: patent US20150139990A1
